- SYSTEM_NAME: Eukaryotic translation initiation factor 2-alpha kinase 3 (Homo sapiens, UniProt Q9NZJ5)
- Sequence (Q9NZJ5 whole entry): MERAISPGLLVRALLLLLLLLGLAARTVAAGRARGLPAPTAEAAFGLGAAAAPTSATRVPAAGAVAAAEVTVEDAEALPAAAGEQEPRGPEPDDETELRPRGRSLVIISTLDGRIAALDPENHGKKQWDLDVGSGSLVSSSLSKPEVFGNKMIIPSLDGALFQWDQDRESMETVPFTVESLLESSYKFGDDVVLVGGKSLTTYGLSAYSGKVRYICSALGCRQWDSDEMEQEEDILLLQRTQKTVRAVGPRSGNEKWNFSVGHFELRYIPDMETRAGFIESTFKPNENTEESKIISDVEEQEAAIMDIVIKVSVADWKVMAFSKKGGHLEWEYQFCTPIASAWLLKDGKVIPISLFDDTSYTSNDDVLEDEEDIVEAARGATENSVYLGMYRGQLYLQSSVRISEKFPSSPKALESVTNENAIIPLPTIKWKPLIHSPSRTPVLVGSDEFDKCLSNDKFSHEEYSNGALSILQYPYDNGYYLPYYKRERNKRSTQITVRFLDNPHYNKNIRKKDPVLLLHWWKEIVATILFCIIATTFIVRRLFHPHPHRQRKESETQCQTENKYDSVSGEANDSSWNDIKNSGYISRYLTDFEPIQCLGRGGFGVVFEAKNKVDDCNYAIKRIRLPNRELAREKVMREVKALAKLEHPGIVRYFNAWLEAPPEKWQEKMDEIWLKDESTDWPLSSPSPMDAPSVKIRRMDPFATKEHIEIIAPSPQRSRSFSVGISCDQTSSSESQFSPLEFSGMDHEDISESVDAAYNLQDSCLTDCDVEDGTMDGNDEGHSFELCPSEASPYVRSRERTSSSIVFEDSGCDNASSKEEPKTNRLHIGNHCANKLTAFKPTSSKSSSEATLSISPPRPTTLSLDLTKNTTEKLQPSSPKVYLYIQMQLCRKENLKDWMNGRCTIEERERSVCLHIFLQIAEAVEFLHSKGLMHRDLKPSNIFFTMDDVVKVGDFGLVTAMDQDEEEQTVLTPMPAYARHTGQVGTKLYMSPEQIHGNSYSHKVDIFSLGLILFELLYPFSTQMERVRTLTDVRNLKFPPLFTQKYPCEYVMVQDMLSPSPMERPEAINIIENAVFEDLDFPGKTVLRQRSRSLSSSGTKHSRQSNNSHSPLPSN
pIC50: −log10 of the molar value.
REPORTED_METRIC: pIC50

Request: Read off the recorded pIC50 for CN1CCN(C[C@@H](NC(=O)C[C@H]2CNC(=O)c3cc(-c4cccc(Cl)c4)cn32)C2CCCCC2)CC1
Result: < 5.00
